Origin of the recorded values: patent US20260151494A1

# Measured Target: T1, human CD71 extracellular domain (CD71-ECD) (human, UniProt P02786 89-760)
# T1 construct: also called hCD71; human CD71-ECD
# T1 sequence (P02786 89-760): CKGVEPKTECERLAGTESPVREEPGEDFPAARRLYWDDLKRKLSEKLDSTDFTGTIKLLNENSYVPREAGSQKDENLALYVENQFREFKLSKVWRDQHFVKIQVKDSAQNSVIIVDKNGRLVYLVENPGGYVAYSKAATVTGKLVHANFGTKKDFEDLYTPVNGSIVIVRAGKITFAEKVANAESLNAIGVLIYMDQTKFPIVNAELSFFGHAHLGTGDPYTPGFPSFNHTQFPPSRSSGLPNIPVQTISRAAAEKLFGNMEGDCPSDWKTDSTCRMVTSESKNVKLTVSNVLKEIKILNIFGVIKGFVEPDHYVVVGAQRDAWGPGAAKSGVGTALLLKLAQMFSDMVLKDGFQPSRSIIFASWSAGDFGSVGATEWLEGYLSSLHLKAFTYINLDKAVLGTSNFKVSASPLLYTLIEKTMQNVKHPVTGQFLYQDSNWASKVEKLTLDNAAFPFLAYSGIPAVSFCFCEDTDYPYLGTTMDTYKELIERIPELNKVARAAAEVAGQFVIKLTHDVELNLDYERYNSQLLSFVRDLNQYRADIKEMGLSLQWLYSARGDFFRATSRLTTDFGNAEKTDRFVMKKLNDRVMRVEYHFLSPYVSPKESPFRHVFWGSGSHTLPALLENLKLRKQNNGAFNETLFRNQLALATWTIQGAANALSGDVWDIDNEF
# Procedure Summary: primary ELISA, RLU ratio to HSA
Measured Parameter: hCD71:HSA

INSERT INTO measurements (binder, test_value) VALUES
  ('CD71-binding FN3 domain SEQ ID NO: 283 (designed binder) MSLPAPKNLVVSRVTEDSARLSWTAPDAAFDSFEIAYQELSLWGEAIVLTVPGSERSYDLTGLKPGTEYYVHIGGVKGGIWSSPLSAYSTT', 77),
  ('CD71-binding FN3 domain SEQ ID NO: 304 (designed binder) MSLPAPKNLVVSRVTEDSARLSWTAPDAAFDSFEIGYFENLYLGEAIVLTVPGSERSYDLTGLKPGTEYVVFIGGVKGGVWSVPLSAIFTT', 274);
